- TESTED SYSTEM: CYP3A4 (Homo sapiens, UniProt P08684)
- Sequence (P08684 whole entry): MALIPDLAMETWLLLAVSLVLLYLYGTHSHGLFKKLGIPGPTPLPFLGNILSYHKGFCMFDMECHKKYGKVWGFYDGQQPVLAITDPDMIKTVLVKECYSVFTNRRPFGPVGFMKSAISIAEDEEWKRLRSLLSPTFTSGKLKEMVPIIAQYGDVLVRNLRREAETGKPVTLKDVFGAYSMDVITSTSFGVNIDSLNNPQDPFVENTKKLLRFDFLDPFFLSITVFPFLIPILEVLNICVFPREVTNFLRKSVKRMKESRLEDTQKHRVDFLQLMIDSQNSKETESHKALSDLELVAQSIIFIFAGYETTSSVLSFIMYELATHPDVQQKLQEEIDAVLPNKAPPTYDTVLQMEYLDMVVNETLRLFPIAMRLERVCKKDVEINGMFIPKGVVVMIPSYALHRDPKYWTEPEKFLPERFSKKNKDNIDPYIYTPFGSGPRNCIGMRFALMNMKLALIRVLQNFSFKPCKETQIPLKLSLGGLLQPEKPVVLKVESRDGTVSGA
- PROTOCOL TEXT: Inhibition of CYP3A4 in human liver microsomes assessed as enzyme-mediated metabolite formation at 3 uM using testosterone as substrate incubated for 5 mins followed by NADPH addition measured after 30 mins by LC-MS/MS analysis relative to control
- Type: ADME
- Set-up: scale not given: the % may be the effect or the level left
- SETTINGS: probe testosterone, read-out: Activity
OBSERVATION TYPE: activity at 0.5 h, 3 µM (%)
One number for each entry, in %.

Query: Item CCCCCCCC(=O)CCc1ccc(O)c(OC)c1 has what recorded activity at 0.5 h, 3 µM?
Response: 63.3
